- experiment notes: qHTS Validation assay for Inhibitors of Plasmodium falciparum Dd2 growth in vitro; note: nearly all actives have a fitted effect of over 70% in size; note: potency is the fitted concentration of half-maximal effect
- assay context: P. falciparum Dd2 in RBCs, SYBR Green growth, 72 h; series mostly up to 28.7 µM
Out of some 4,100 compounds screened, about 1,600 (39%) were called active. Another 25% or so got no clear call; they are omitted. Some of the results follow.
recorded metric: Potency

The following compounds have reported results that may help.
compound: CCOC(=O)c1c(C)oc2nc(C)nc(Nc3ccc(C)c(Cl)c3)c12
Potency: inactive

compound: O=C1CCN(C2CCCC2)CCCC(c2nc(-c3cccnc3)no2)CCN1 (configuration not stated)
Potency: inactive

compound: CCCCCn1c(=N)n(CC(O)COc2cccc(C)c2)c2ccccc21 (configuration not stated)
Potency: 2.11 µM (active)

compound: O=C(c1ccc2ncccc2c1)N1CCc2c(nc3cc[nH]n3c2=O)C1
Potency: inactive

compound: Cc1ccc(Sc2ccc(NC(=O)CCl)cc2)cc1C
Potency: 9.44 µM (active)

[in] Sample CCOC(=O)c1c(C)oc2nc(C)nc(Nc3ccc(CC)cc3)c12 — what was its Potency?
[out] 7.5 µM (active)

[in] And Cc1ccc(C(=O)N2CCc3cc(CNC(=O)CCc4ccccc4)ccc32)cc1 ?
[out] inactive

[in] Continue with COc1cncc(Nc2ncc(-c3c(C)noc3C)c3c2OCC3)c1
[out] inactive

---

- experiment notes: qHTS Validation assay for Inhibitors of Plasmodium falciparum Dd2 growth in vitro; note: nearly all actives have a fitted effect of over 70% in size
- assay context: P. falciparum Dd2 in RBCs, SYBR Green growth, 72 h; series mostly up to 28.7 µM
The whole screen tested about 4,100 compounds, of which about 1,600 (39%) were called active. Not shown: some 25% with an inconclusive outcome. Calls follow the shape of the dose curve; as a rule, active = well fitted inhibition curve with a large enough effect; inconclusive = small, poorly fitted or top-dose-only effect; inactive = no such curve, though single readings can be large or run the other way. The list shows a part of the results.
Outcome field: choose from Y for active, N for inactive

[in] GET /call?item= Cc1ccc(C)c(N2CCN(CCCNC(=O)c3cnn(-c4ccc(F)cc4)c3C3CCN(C(=O)OC(C)(C)C)CC3)CC2)c1 returns the recorded outcome of this test.
[out] Y

[in] Try CCOC(=O)N1CCc2c(sc3c2c(=O)n(Cc2ccccc2)c(=O)n3Cc2ccccc2Cl)C1 next.
[out] Y

[in] Would you kindly repeat that for O=C(CCc1cc(Cl)no1)N1CCc2nc3cc(-c4ccccc4)[nH]n3c(=O)c2C1 ?
[out] N

[in] Also need CCOC(=O)c1c(C)[nH]c(C)c1S(=O)(=O)N1CCN(c2cccc(C(F)(F)F)c2)CC1 , thanks.
[out] N

[in] What do you get for CCC(C)(C)n1nnnc1C(c1cccnc1)N1CCN(c2cccc(C(F)(F)F)c2)CC1 (stereo not given) ?
[out] Y

[in] Param item: COc1ccc(-n2nc(C)c([C@@H]3C=C[C@@H](NCc4ccc(N(C)C)cc4)C3)c2C)cc1
[out] Y

[in] What about N#Cc1c2c(c(NCc3ccco3)n3c1nc1ccccc13)CCC2 ?
[out] Y

[in] How about this compound: COCCNC(=O)c1ccc(OC2CCN(C/C=C/c3ccc(F)cc3)CC2)c(Cl)c1
[out] Y

[in] Moving on to the next compound: O=C(NC1CCCC1)c1ccc(OC2CCN(CCCC(F)(F)F)CC2)c(Cl)c1
[out] Y

[in] Another compound: CC(C)(C)OC(=O)N1CCC(c2c(C(=O)NCCN3CCC(Cc4ccccc4)CC3)cnn2-c2ccc(F)cc2)CC1
[out] Y

[in] Try the compound COC(=O)CSc1nc2c(c(-c3ccco3)c1C#N)CCCC2
[out] N

[in] Can you handle CC(=O)N1CCc2c(sc3c2c(=O)n(Cc2ccccc2)c(=O)n3CC(=O)NCC2CCCO2)C1 (stereo not given) next?
[out] N

[in] Let us now turn to O=C(Nc1cccc(C(F)(F)F)c1)c1nc2c(o1)CCN(Cc1cccc(F)c1)CC2
[out] N

[in] Can you handle O=C(C[C@@H]1CCNC[C@@H]1Cc1cc(COc2ccccc2)on1)NCc1cccs1 next?
[out] N

[in] Same lookup for CCC(=O)N1CCCCCCNC(=O)[C@@H]2C[C@@H](C(=O)N3CCN(c4ccccn4)CC3)C[C@@H]21 , please.
[out] N
